These data points were gathered from patent US20090130134A1.

- system_under_test: HLA-DR15 (human)
- protocol_summary: competition ELISA, tracer A3 152-166
pIC50: −log10 of the molar value.

# binder, pIC50
records = [
    ("ASSYAAAQRKLLTPV (modifications not checked) [A15V]", 4.58),
    ("DPHLPTLLLGTSGSGGDDDDPHGPVQLSYYD (modifications not checked) [D31D]", 6.60),
    ("ALWNLHGQALFLGIVL (modifications not checked) [A16L]", 7.32),
]
